Values compiled from ChEMBL document CHEMBL4196076.

Let's look at some compounds and their measured selectivity ratio.
Experiment: Selectivity index, ratio of EC50 for mouse NIH/3T3 cells to EC50 for human A2780 cells
Type: toxicity
Conditions: NIH/3T3 cells and A2780 cells, read-out: Ratio EC50

Check out these entries, answers already filled in.
COC(=O)CNC(=O)CN(Cc1ccoc1)C(=O)[C@]12CCC(C)(C)C[C@H]1C1=CC[C@@H]3[C@@]4(C)CC[C@H](OC(C)=O)C(C)(C)[C@@H]4CC[C@@]3(C)[C@]1(C)CC2 = 2.5
CC(=O)O[C@@H]1C[C@]2(C)[C@H]3CC=C4[C@@H]5CC(C)(C)CC[C@]5(C(=O)N(CC(=O)NCc5ccccc5)Cc5ccccc5)CC[C@@]4(C)[C@]3(C)CC[C@H]2C(C)(C)[C@H]1OC(C)=O = 73
CC(=O)O[C@H]1CC[C@]2(C)[C@H]3CC=C4[C@@H]5CC(C)(C)CC[C@]5(C(=O)N(CC(=O)NC(C)(C)C)Cc5ccccc5)CC[C@@]4(C)[C@]3(C)CC[C@H]2C1(C)C = > 11

Could you now consider this next compound?
I am curious: what selectivity ratio value has been reported for C=CCN(CC(=O)NCC(=O)OC)C(=O)[C@]12CCC(C)(C)C[C@H]1C1=CC[C@@H]3[C@@]4(C)CC[C@H](OC(C)=O)C(C)(C)[C@@H]4CC[C@@]3(C)[C@]1(C)CC2 ?
2.1

* * *

System: FaDu
Test: Cytotoxicity against human FADU cells after 96 hrs by sulforhodamine-B assay
Assay type: functional, cell-based
EXPERIMENTAL ENDPOINT: pEC50
Please treat pEC50 as minus the base-10 logarithm of the molar concentration.

CC1(C)CC[C@]2(C(=O)O)CC[C@]3(C)C(=CC[C@@H]4[C@@]5(C)CC[C@H](O)C(C)(C)[C@@H]5CC[C@]43C)[C@@H]2C1 = 4.18

Given CC(C)NC(=O)CN(Cc1ccoc1)C(=O)[C@]12CCC(C)(C)C[C@H]1C1=CC[C@@H]3[C@@]4(C)CC[C@H](O)C(C)(C)[C@@H]4CC[C@@]3(C)[C@]1(C)CC2 , state its recorded pEC50.
5.10

What do we get for CC(=O)O[C@H]1CC[C@]2(C)[C@H]3CC=C4[C@@H]5CC(C)(C)CC[C@]5(C(=O)N(CC(=O)NC(C)C)Cc5ccoc5)CC[C@@]4(C)[C@]3(C)CC[C@H]2C1(C)C ?
4.90

Another: C=CCN(CC(=O)NCC(=O)OC)C(=O)[C@]12CCC(C)(C)C[C@H]1C1=CC[C@@H]3[C@@]4(C)CC[C@H](OC(C)=O)C(C)(C)[C@@H]4CC[C@@]3(C)[C@]1(C)CC2
4.91

And CC1(C)CC[C@]2(C(=O)O)CC[C@]3(C)C(=CC[C@@H]4[C@@]5(C)C[C@@H](O)[C@H](O)C(C)(C)[C@@H]5CC[C@]43C)[C@@H]2C1 ?
4.77

Lookup CC(=O)O[C@H]1CC[C@]2(C)[C@H]3CC=C4[C@@H]5CC(C)(C)CC[C@]5(C(=O)OCC(=O)NCc5ccccc5)CC[C@@]4(C)[C@]3(C)CC[C@H]2C1(C)C
5.14

Subsequent entry: C=CCN(CC(=O)NCc1ccccc1)C(=O)[C@]12CCC(C)(C)C[C@H]1C1=CC[C@@H]3[C@@]4(C)CC[C@H](OC(C)=O)C(C)(C)[C@@H]4CC[C@@]3(C)[C@]1(C)CC2
4.81

Check CC(=O)O[C@@H]1C[C@]2(C)[C@H]3CC=C4[C@@H]5CC(C)(C)CC[C@]5(C(=O)O)CC[C@@]4(C)[C@]3(C)CC[C@H]2C(C)(C)[C@H]1OC(C)=O too.
4.67

Try the compound CC1(C)CC[C@]2(C(=O)N(CC(=O)NC(C)(C)C)Cc3ccccc3)CC[C@]3(C)C(=CC[C@@H]4[C@@]5(C)CC[C@H](O)C(C)(C)[C@@H]5CC[C@]43C)[C@@H]2C1
4.75

Can you check CCCCNC(=O)CN(Cc1ccccc1)C(=O)[C@]12CCC(C)(C)C[C@H]1C1=CC[C@@H]3[C@@]4(C)CC[C@H](OC(C)=O)C(C)(C)[C@@H]4CC[C@@]3(C)[C@]1(C)CC2 next?
4.64

* * *

Tested on: 518A2
Experiment: Cytotoxicity against human 518A2 cells after 96 hrs by sulforhodamine-B assay
Format: functional, cell-based
Details: 518A2, 96 h
Reported EC50 values follow for various molecules
The response must be a number in µM with no trailing unit.

CC(=O)O[C@H]1CC[C@]2(C)[C@H]3CC=C4[C@@H]5CC(C)(C)CC[C@]5(C(=O)N(CC(=O)NCc5ccccc5)Cc5ccccc5)CC[C@@]4(C)[C@]3(C)CC[C@H]2C1(C)C = 13.5
CC(=O)O[C@H]1CC[C@]2(C)[C@H]3CC=C4[C@@H]5CC(C)(C)CC[C@]5(C(=O)N(CC(=O)NC(C)(C)C)Cc5ccoc5)CC[C@@]4(C)[C@]3(C)CC[C@H]2C1(C)C = 24.7
C=CCN(CC(=O)NCC(=O)OC)C(=O)[C@]12CCC(C)(C)C[C@H]1C1=CC[C@@H]3[C@@]4(C)CC[C@H](OC(C)=O)C(C)(C)[C@@H]4CC[C@@]3(C)[C@]1(C)CC2 = 7.7

Recorded EC50 for CC(=O)O[C@H]1CC[C@]2(C)[C@H]3CC=C4[C@@H]5CC(C)(C)CC[C@]5(C(=O)OCC(=O)NC(C)(C)C)CC[C@@]4(C)[C@]3(C)CC[C@H]2C1(C)C , please?
13.2

* * *

The compounds listed here are annotated with their pEC50.
System: NIH3T3
Experiment: Cytotoxicity against mouse NIH/3T3 cells after 96 hrs by sulforhodamine-B assay
Assay type: cell-based
Settings: NIH3T3, 96 h
pEC50: −log10 of the molar value.

Reference set (2 entries):
C=CCN(CC(=O)NC(C)(C)C)C(=O)[C@]12CCC(C)(C)C[C@H]1C1=CC[C@@H]3[C@@]4(C)CC[C@H](OC(C)=O)C(C)(C)[C@@H]4CC[C@@]3(C)[C@]1(C)CC2 = < 4.52
CCCCN(CC(=O)NCc1ccccc1)C(=O)[C@]12CCC(C)(C)C[C@H]1C1=CC[C@@H]3[C@@]4(C)CC[C@H](OC(C)=O)C(C)(C)[C@@H]4CC[C@@]3(C)[C@]1(C)CC2 = < 4.52

// next item, pEC50 requested
Consider the compound shown here: CC(=O)O[C@H]1CC[C@]2(C)[C@H]3CC=C4[C@@H]5CC(C)(C)CC[C@]5(C(=O)N(C)CC(=O)NC(C)(C)C)CC[C@@]4(C)[C@]3(C)CC[C@H]2C1(C)C What is its recorded pEC50?
5.00

* * *

Test system: MCF7
Experiment: Cytotoxicity against human MCF7 cells after 96 hrs by sulforhodamine-B assay
Type: functional, cell-based
Conditions: MCF7, 96 h
EXPERIMENTAL ENDPOINT: EC50 (µM)
Give the number; µM is assumed, so skip it.

C=CCN(CC(=O)NCC(=O)OC)C(=O)[C@]12CCC(C)(C)C[C@H]1C1=CC[C@@H]3[C@@]4(C)CC[C@H](OC(C)=O)C(C)(C)[C@@H]4CC[C@@]3(C)[C@]1(C)CC2 = 4.6

Can you look up the measured EC50 of CN(CC(=O)NC(C)(C)C)C(=O)[C@]12CCC(C)(C)C[C@H]1C1=CC[C@@H]3[C@@]4(C)CC[C@H](O)C(C)(C)[C@@H]4CC[C@@]3(C)[C@]1(C)CC2 for me?
12.2

// same read-out, input: CCCCNC(=O)CN(Cc1ccoc1)C(=O)[C@]12CCC(C)(C)C[C@H]1C1=CC[C@@H]3[C@@]4(C)CC[C@H](OC(C)=O)C(C)(C)[C@@H]4CC[C@@]3(C)[C@]1(C)CC2
13.9

Follow-up item: C=CCN(CC(=O)NC(C)(C)C)C(=O)[C@]12CCC(C)(C)C[C@H]1C1=CC[C@@H]3[C@@]4(C)CC[C@H](O)C(C)(C)[C@@H]4CC[C@@]3(C)[C@]1(C)CC2
7

* * *

Test system: FaDu
Test: Cytotoxicity against human FADU cells after 96 hrs by sulforhodamine-B assay
Type: functional, cell-based
EXPERIMENTAL ENDPOINT: pEC50
In textbook form, pEC50 equals minus log to base ten of the concentration in mol/L.

CC(=O)O[C@H]1CC[C@]2(C)[C@H]3CC=C4[C@@H]5CC(C)(C)CC[C@]5(C(=O)N(CC(=O)NC(C)(C)C)Cc5ccccc5)CC[C@@]4(C)[C@]3(C)CC[C@H]2C1(C)C = 4.80
CC(=O)O[C@H]1CC[C@]2(C)[C@H]3CC=C4[C@@H]5CC(C)(C)CC[C@]5(C(=O)N(CC(=O)NC(C)(C)C)Cc5ccoc5)CC[C@@]4(C)[C@]3(C)CC[C@H]2C1(C)C = 4.54
CC(=O)O[C@H]1CC[C@]2(C)[C@H]3CC=C4[C@@H]5CC(C)(C)CC[C@]5(C(=O)N(C)CC(=O)NC(C)(C)C)CC[C@@]4(C)[C@]3(C)CC[C@H]2C1(C)C = 5.17
CC(=O)O[C@@H]1C[C@]2(C)[C@H]3CC=C4[C@@H]5CC(C)(C)CC[C@]5(C(=O)OCC(=O)NCc5ccccc5)CC[C@@]4(C)[C@]3(C)CC[C@H]2C(C)(C)[C@H]1OC(C)=O = 5.14
COC(=O)CNC(=O)CN(Cc1ccoc1)C(=O)[C@]12CCC(C)(C)C[C@H]1C1=CC[C@@H]3[C@@]4(C)CC[C@H](OC(C)=O)C(C)(C)[C@@H]4CC[C@@]3(C)[C@]1(C)CC2 = 5.23
CC(=O)O[C@H]1CC[C@]2(C)[C@H]3CC=C4[C@@H]5CC(C)(C)CC[C@]5(C(=O)N(CC(=O)NCc5ccccc5)Cc5ccoc5)CC[C@@]4(C)[C@]3(C)CC[C@H]2C1(C)C = 4.66

Look up pEC50: C=CCN(CC(=O)NC(C)(C)C)C(=O)[C@]12CCC(C)(C)C[C@H]1C1=CC[C@@H]3[C@@]4(C)C[C@@H](OC(C)=O)[C@H](OC(C)=O)C(C)(C)[C@@H]4CC[C@@]3(C)[C@]1(C)CC2
5.32
